Reference source for all entries: ChEMBL document CHEMBL4330143

SUBJECT OF TEST: Cytochrome P450 2D6 (Homo sapiens, UniProt P10635)
Sequence (P10635 whole entry): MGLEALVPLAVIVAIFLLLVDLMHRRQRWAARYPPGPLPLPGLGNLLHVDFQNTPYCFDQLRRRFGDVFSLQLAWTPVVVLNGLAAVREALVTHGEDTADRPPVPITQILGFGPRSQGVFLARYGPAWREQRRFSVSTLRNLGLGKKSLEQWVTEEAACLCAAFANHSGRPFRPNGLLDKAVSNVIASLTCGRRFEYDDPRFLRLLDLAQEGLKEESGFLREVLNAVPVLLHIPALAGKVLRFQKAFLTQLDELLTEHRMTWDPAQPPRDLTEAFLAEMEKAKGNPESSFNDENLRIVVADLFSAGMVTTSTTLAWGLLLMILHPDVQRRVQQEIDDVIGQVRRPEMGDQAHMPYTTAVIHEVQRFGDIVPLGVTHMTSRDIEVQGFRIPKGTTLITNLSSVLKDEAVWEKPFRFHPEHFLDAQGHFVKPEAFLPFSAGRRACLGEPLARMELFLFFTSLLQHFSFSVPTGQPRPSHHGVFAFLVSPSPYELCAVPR
EXPERIMENTAL PROTOCOL: Competitive inhibition of CYP2D6 (unknown origin)
Format: ADME
OUTCOME MEASURE: IC50

Input: Lab note: record IC50 of "CC1=C(c2cccc(O)c2)[C@H](c2ccc(OCCN3CC(CF)C3)cc2)Oc2ccc(O)cc21" tested on Cytochrome P450 2D6 (Homo sapiens, UniProt P10635).
Output: > 10 µM

* * *

EXPERIMENTAL PROTOCOL: Oral bioavailability in rat at 10 mg/kg daily for 3 days measured on day 3 post last dose
Format: ADME, organism-based
RUN PARAMETERS: in vivo
// values below are reported bioavailability
Unit % implied. Number only.

CC1=C(c2ccc(F)cc2)[C@H](c2ccc(OCCN3CC(CF)C3)cc2)Oc2ccc(O)cc21 = 42

API: the following record is the query input.
Input: Read off the recorded bioavailability for "CC1=C(c2cccc(O)c2)[C@H](c2ccc(OCCN3CC(CF)C3)cc2)Oc2ccc(O)cc21"
Output: 10
